experimentalProtocol: Plasma pharmacokinetics (LC–MS/MS, non-compartmental analysis)
Assay type: in vivo, Japanese patients
measurementConditions: human, plasma, oral, 1000 mg, Cycle 1 Day 28; 1000 mg qd; n = 4; read-out: Tmax, Median
measurementLabel: Tmax (h)
Numbers only, in h.

-- ask What value of measured Tmax is listed for `Cn1c(=O)n(-c2ccc(C(C)(C)C#N)cc2)c2c3cc(-c4cnc5ccccc5c4)ccc3ncc21` ?
-- reply 4

* * *

experimentalProtocol: Plasma pharmacokinetics (LC–MS/MS, non-compartmental analysis)
Format: in vivo, Japanese patients
measurementConditions: human, plasma, oral, 1200 mg, Cycle 1 Day 8; 1200 mg qd; n = 4; read-out: Cmax, Median
measurementLabel: Cmax

-- ask What value of measured Cmax is listed for Cn1c(=O)n(-c2ccc(C(C)(C)C#N)cc2)c2c3cc(-c4cnc5ccccc5c4)ccc3ncc21 [BEZ235] ?
-- reply 1810 ng/mL

Cited source for all entries: paper PMC6394493
